protocol.text: Biodistribution studies
Type: in vivo, mice
condition.label: athymic nude Foxn1^nu, mouse, in vivo, iv, 1 MBq, total radioactivity, Uptake [% IA/g] Heart
*1 amine or outer side, *2 acyl side, *3 side chain or, on linkers, in order; H or OH if unused. Where a SMILES comes first, the peptide text is derived from it. Bridges are numbered along the chain shown (N, C = ends). [ ]: non-standard residue; d: D form. The star is where a group is joined. NODAGA = O=C(O)CN1CCN(CC(=O)O)CCN(C(CCC(=O)*)C(=O)O)CC1; X1 = NC(=O)Nc1ccc(CC(N[*:1])C(=O)[*:2])cc1; Phe(4-Cl) = N[CH](Cc1ccc(Cl)cc1)C(=O)O

molecule: CC(O)C1NC(=O)C(CCCCN)NC(=O)C(Cc2ccc(NC(N)=O)cc2)NC(=O)C(Cc2ccc(O)cc2)NC(=O)C(NC(=O)C(Cc2ccc(Cl)cc2)NC(=O)CCC(C(=O)O)N2CCN(CC(=O)O)CCN(CC(=O)O)CC2)CSSCC(C(=O)NC(Cc2ccc(O)cc2)C(N)=O)NC1=O (stereo not shown) [[^61Cu]Cu-NODAGA-LM3, metal not drawn] ({NODAGA}-[Phe(4-Cl)]CY[X1]KTCY-NH2; disulfide 2-7; configuration not given here)
tissue uptake at 4 h: 0.17 %ID/g

----------
protocol.text: in vivo
condition.label: athymic nude Foxn1^nu, mouse, total radioactivity, Uptake Intestine
*1 amine or outer side, *2 acyl side, *3 side chain or, on linkers, in order; H or OH if unused. Where a SMILES comes first, the peptide text is derived from it. Bridges are numbered along the chain shown (N, C = ends). [ ]: non-standard residue; d: D form. The star is where a group is joined. NODAGA = O=C(O)CN1CCN(CC(=O)O)CCN(C(CCC(=O)*)C(=O)O)CC1; X1 = NC(=O)Nc1ccc(CC(N[*:1])C(=O)[*:2])cc1; Phe(4-Cl) = N[CH](Cc1ccc(Cl)cc1)C(=O)O
observable: tissue uptake at 4 h (%ID/g)

compound: CC(O)C1NC(=O)C(CCCCN)NC(=O)C(Cc2ccc(NC(N)=O)cc2)NC(=O)C(Cc2ccc(O)cc2)NC(=O)C(NC(=O)C(Cc2ccc(Cl)cc2)NC(=O)CCC(C(=O)O)N2CCN(CC(=O)O)CCN(CC(=O)O)CC2)CSSCC(C(=O)NC(Cc2ccc(O)cc2)C(N)=O)NC1=O (stereo not shown) [[^61Cu]Cu-NODAGA-LM3, metal not drawn] ({NODAGA}-[Phe(4-Cl)]CY[X1]KTCY-NH2; disulfide 2-7; configuration not given here)
observable: tissue uptake at 4 h
reported.measurement: 0.46

----------
protocol.text: Extended single-dose toxicity study (GLP, microdose approach)
Format: in vivo, mice
condition.label: both sexes, C57BL/6NCrl, mouse, in vivo, iv, 5 mg/kg; single i.v. dose, 14 days observation, mice; read-out: no adverse effect level (NOAEL)
Where a SMILES comes first, the peptide text is derived from it. Bridges are numbered along the chain shown (N, C = ends). [ ]: non-standard residue; d: D form. The star is where a group is joined. X2 = O=C(O)CN1CCN(CC(=O)O)CCN([C@H](CCC(=O)*)C(=O)O)CC1; dPhe(4-NHCONH2) = NC(=O)Nc1ccc(C[C@@H](N)C(=O)O)cc1; Phe(4-Cl) = N[C@@H](Cc1ccc(Cl)cc1)C(=O)O

molecule: C[C@@H](O)[C@@H]1NC(=O)[C@H](CCCCN)NC(=O)[C@@H](Cc2ccc(NC(N)=O)cc2)NC(=O)[C@H](Cc2ccc(O)cc2)NC(=O)[C@H](NC(=O)[C@H](Cc2ccc(Cl)cc2)NC(=O)CC[C@H](C(=O)O)N2CCN(CC(=O)O)CCN(CC(=O)O)CC2)CSSC[C@@H](C(=O)N[C@H](Cc2ccc(O)cc2)C(N)=O)NC1=O [NODAGA-LM3] (X2-[Phe(4-Cl)][dC]Y[dPhe(4-NHCONH2)]KTC[dY]-NH2; disulfide 2-7)
unit.info: mg/kg
NOAEL at 14 days: 5

----------
protocol.text: in vivo
condition.label: athymic nude Foxn1^nu, mouse, total radioactivity, Uptake Tumor
*1 amine or outer side, *2 acyl side, *3 side chain or, on linkers, in order; H or OH if unused. Where a SMILES comes first, the peptide text is derived from it. Bridges are numbered along the chain shown (N, C = ends). [ ]: non-standard residue; d: D form. The star is where a group is joined. NODAGA = O=C(O)CN1CCN(CC(=O)O)CCN(C(CCC(=O)*)C(=O)O)CC1; X1 = NC(=O)Nc1ccc(CC(N[*:1])C(=O)[*:2])cc1; Phe(4-Cl) = N[CH](Cc1ccc(Cl)cc1)C(=O)O
observable: tissue uptake at 4 h (%ID/g)

molecule: CC(O)C1NC(=O)C(CCCCN)NC(=O)C(Cc2ccc(NC(N)=O)cc2)NC(=O)C(Cc2ccc(O)cc2)NC(=O)C(NC(=O)C(Cc2ccc(Cl)cc2)NC(=O)CCC(C(=O)O)N2CCN(CC(=O)O)CCN(CC(=O)O)CC2)CSSCC(C(=O)NC(Cc2ccc(O)cc2)C(N)=O)NC1=O (stereo not shown) [[^61Cu]Cu-NODAGA-LM3, metal not drawn] ({NODAGA}-[Phe(4-Cl)]CY[X1]KTCY-NH2; disulfide 2-7; configuration not given here)
unit.info: %ID/g
reported.measurement: 0.52

----------
protocol.text: Specificity (blocking) study with excess DOTA-LM3
condition.label: athymic nude Foxn1^nu, mouse, tumor, with DOTA-LM3, 2000-fold excess, co-injected as blocking agent, total radioactivity, Uptake Tumor, 4 hours blocking, co-injected 2000-fold excess of DOTA-LM3
Where a SMILES comes first, the peptide text is derived from it. Bridges are numbered along the chain shown (N, C = ends). [ ]: non-standard residue; d: D form. The star is where a group is joined. X2 = O=C(O)CN1CCN(CC(=O)O)CCN([C@H](CCC(=O)*)C(=O)O)CC1; dPhe(4-NHCONH2) = NC(=O)Nc1ccc(C[C@@H](N)C(=O)O)cc1; Phe(4-Cl) = N[C@@H](Cc1ccc(Cl)cc1)C(=O)O
observable: tissue uptake at 4 h (%ID/g)

molecule: C[C@@H](O)[C@@H]1NC(=O)[C@H](CCCCN)NC(=O)[C@@H](Cc2ccc(NC(N)=O)cc2)NC(=O)[C@H](Cc2ccc(O)cc2)NC(=O)[C@H](NC(=O)[C@H](Cc2ccc(Cl)cc2)NC(=O)CC[C@H](C(=O)O)N2CCN(CC(=O)O)CCN(CC(=O)O)CC2)CSSC[C@@H](C(=O)N[C@H](Cc2ccc(O)cc2)C(N)=O)NC1=O [[^64Cu]Cu-NODAGA-LM3, metal not drawn] (X2-[Phe(4-Cl)][dC]Y[dPhe(4-NHCONH2)]KTC[dY]-NH2; disulfide 2-7)
observable: tissue uptake at 4 h
reported.measurement: 0.52

----------
protocol.text: in vivo
condition.label: athymic nude Foxn1^nu, mouse, total radioactivity, Uptake Spleen
*1 amine or outer side, *2 acyl side, *3 side chain or, on linkers, in order; H or OH if unused. Where a SMILES comes first, the peptide text is derived from it. Bridges are numbered along the chain shown (N, C = ends). [ ]: non-standard residue; d: D form. The star is where a group is joined. NODAGA = O=C(O)CN1CCN(CC(=O)O)CCN(C(CCC(=O)*)C(=O)O)CC1; X1 = NC(=O)Nc1ccc(CC(N[*:1])C(=O)[*:2])cc1; Phe(4-Cl) = N[CH](Cc1ccc(Cl)cc1)C(=O)O

compound: CC(O)C1NC(=O)C(CCCCN)NC(=O)C(Cc2ccc(NC(N)=O)cc2)NC(=O)C(Cc2ccc(O)cc2)NC(=O)C(NC(=O)C(Cc2ccc(Cl)cc2)NC(=O)CCC(C(=O)O)N2CCN(CC(=O)O)CCN(CC(=O)O)CC2)CSSCC(C(=O)NC(Cc2ccc(O)cc2)C(N)=O)NC1=O (stereo not shown) [[^61Cu]Cu-NODAGA-LM3, metal not drawn] ({NODAGA}-[Phe(4-Cl)]CY[X1]KTCY-NH2; disulfide 2-7; configuration not given here)
tissue uptake at 4 h: 0.21 %ID/g

----------
protocol.text: in vivo
condition.label: athymic nude Foxn1^nu, mouse, total radioactivity, Uptake Pancreas
*1 amine or outer side, *2 acyl side, *3 side chain or, on linkers, in order; H or OH if unused. Where a SMILES comes first, the peptide text is derived from it. Bridges are numbered along the chain shown (N, C = ends). [ ]: non-standard residue; d: D form. The star is where a group is joined. NODAGA = O=C(O)CN1CCN(CC(=O)O)CCN(C(CCC(=O)*)C(=O)O)CC1; X1 = NC(=O)Nc1ccc(CC(N[*:1])C(=O)[*:2])cc1; Phe(4-Cl) = N[CH](Cc1ccc(Cl)cc1)C(=O)O
observable: tissue uptake at 4 h (%ID/g)

compound: CC(O)C1NC(=O)C(CCCCN)NC(=O)C(Cc2ccc(NC(N)=O)cc2)NC(=O)C(Cc2ccc(O)cc2)NC(=O)C(NC(=O)C(Cc2ccc(Cl)cc2)NC(=O)CCC(C(=O)O)N2CCN(CC(=O)O)CCN(CC(=O)O)CC2)CSSCC(C(=O)NC(Cc2ccc(O)cc2)C(N)=O)NC1=O (stereo not shown) [[^61Cu]Cu-NODAGA-LM3, metal not drawn] ({NODAGA}-[Phe(4-Cl)]CY[X1]KTCY-NH2; disulfide 2-7; configuration not given here)
observable: tissue uptake at 4 h
unit.info: %ID/g
reported.measurement: 0.12
